Selectivity against PKA for assorted compounds
# System name: recombinant human PKA (Homo sapiens, UniProt P17612)
# Construct: recombinant human PKA (residues 1-351, N-terminal His-tag); His-tag (N); purchased Invitrogen, Karlsruhe, Germany
# Experiment description: Determination of Protein Kinase A inhibition (selectivity)
# Type: biochemical
# Experimental parameters: from IC50 values

// below: answered compounds
| Compound | Result |
| --- | --- |
| CC(N)C1(CC2CC2)CCC(Oc2cc3cc[nH]c(=O)c3cc2Cl)CC1 (single isomer, unassigned) [Example 11] | >100 fold |
| CCC(N)[C@]1(C2CCCCC2)CC[C@H](Oc2cc3cc[nH]c(=O)c3cc2Cl)CC1 (some centres unmarked) | >300 fold |
| CCC(N)C1(CC)CCC(Oc2cc3cc[nH]c(=O)c3cc2Cl)CC1 (single isomer, unassigned) [Example 108] | >1000 fold |
| CCC[C@]1(C(C)N)CC[C@@H](Oc2cc3cc[nH]c(=O)c3cc2Cl)CC1 (some centres unmarked) | >1000 fold |

The record that follows has no Selectivity against PKA shown yet.
q: Return the recorded Selectivity against PKA value; entry: CCC(N)[C@]1(C2CCOCC2)CC[C@H](Oc2cc3cc[nH]c(=O)c3cc2Cl)CC1 (single isomer, unassigned) [Example 2]
a: >10 fold

====

# System name: recombinant human PKG1-beta (Homo sapiens)
# Construct: PKG1-beta (full-length, with N-terminal His-tag); His-tag (N); purchased Millipore GmbH, Schwalbach, Germany
# Sequence (Q13976 1-686 isoform Q13976-2): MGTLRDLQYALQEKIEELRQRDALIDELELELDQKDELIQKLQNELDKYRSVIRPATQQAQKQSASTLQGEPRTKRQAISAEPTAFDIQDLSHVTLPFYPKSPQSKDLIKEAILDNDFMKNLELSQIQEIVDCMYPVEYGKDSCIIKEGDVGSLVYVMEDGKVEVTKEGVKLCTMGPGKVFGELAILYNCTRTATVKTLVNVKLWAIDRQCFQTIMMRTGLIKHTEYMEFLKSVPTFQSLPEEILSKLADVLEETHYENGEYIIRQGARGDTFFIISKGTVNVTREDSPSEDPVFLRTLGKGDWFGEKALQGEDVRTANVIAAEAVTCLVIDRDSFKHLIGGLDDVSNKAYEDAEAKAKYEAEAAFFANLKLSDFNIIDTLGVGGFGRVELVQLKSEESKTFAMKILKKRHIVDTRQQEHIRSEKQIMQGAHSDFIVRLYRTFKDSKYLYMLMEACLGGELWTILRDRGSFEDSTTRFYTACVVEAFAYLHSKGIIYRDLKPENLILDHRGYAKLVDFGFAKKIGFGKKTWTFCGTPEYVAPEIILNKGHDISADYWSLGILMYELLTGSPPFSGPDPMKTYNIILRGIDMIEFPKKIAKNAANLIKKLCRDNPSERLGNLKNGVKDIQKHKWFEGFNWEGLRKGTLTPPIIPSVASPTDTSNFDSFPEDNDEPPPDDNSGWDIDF
# Experiment description: Determination of Protein Kinase G inhibition (selectivity)
# Format: biochemical
# Experimental parameters: from IC50 values
Property name: Selectivity against PKG

// below: answered compounds
| Compound | Property name | Result |
| --- | --- | --- |
| CCC(N)[C@]1(C2CCOCC2)CC[C@H](Oc2cc3cc[nH]c(=O)c3cc2Cl)CC1 (single isomer, unassigned) [Example 2] | Selectivity against PKG | >1 fold |
| CCC(N)C1(CC2CC2)CCC(Oc2cc3cc[nH]c(=O)c3cc2Cl)CC1 (single isomer, unassigned) [Example 12] | Selectivity against PKG | >300 fold |
| C[C@]1(C(N)c2ccccc2)CC[C@@H](Oc2cc3cc[nH]c(=O)c3cc2Cl)CC1 (stereo partly drawn) | Selectivity against PKG | >300 fold |
| CCCC1(C(N)C2CC2)CCC(Oc2cc3cc[nH]c(=O)c3cc2Cl)CC1 (single isomer, unassigned) [Example 7] | Selectivity against PKG | >100 fold |
| CC(C)C(N)C1(CC2CC2)CCC(Oc2cc3cc[nH]c(=O)c3cc2Cl)CC1 (single isomer, unassigned) | Selectivity against PKG | >300 fold |
| CCC(N)[C@]1(C2CCOCC2)CC[C@H](Oc2cc3cc[nH]c(=O)c3cc2Cl)CC1 (mixture of isomers) [Example 1] | Selectivity against PKG | >300 fold |
| CCC(N)C1(C2CCC2)CCC(Oc2cc3cc[nH]c(=O)c3cc2Cl)CC1 (single isomer, unassigned) [Example 22] | Selectivity against PKG | >100 fold |
| CCC(N)C1(C(F)(F)F)CCC(Oc2cc3cc[nH]c(=O)c3cc2Cl)CC1 (single isomer, unassigned) | Selectivity against PKG | >1000 fold |

q: Under recombinant human PKG1-beta (Homo sapiens): report Selectivity against PKG of CCC(N)C1(COC(C)C)CCC(Oc2cc3cc[nH]c(=O)c3cc2Cl)CC1 (single isomer, unassigned) .
a: >300 fold

q: Under recombinant human PKG1-beta (Homo sapiens): report Selectivity against PKG of CCC(N)C1(C(C)C)CCC(Oc2cc3cc[nH]c(=O)c3cc2Cl)CC1 (single isomer, unassigned) [Example 9] .
a: >10 fold

q: Under recombinant human PKG1-beta (Homo sapiens): report Selectivity against PKG of CC(C)CC(N)[C@]1(CC2CC2)CC[C@H](Oc2cc3cc[nH]c(=O)c3cc2Cl)CC1 (stereo partly drawn) .
a: >300 fold

q: Under recombinant human PKG1-beta (Homo sapiens): report Selectivity against PKG of CC(N)C1(CC2CC2)CCC(Oc2cc3cc[nH]c(=O)c3cc2Cl)CC1 (single isomer, unassigned) [Example 11] .
a: >300 fold

q: Under recombinant human PKG1-beta (Homo sapiens): report Selectivity against PKG of CC(N)C1(C2CCC2)CCC(Oc2cc3cc[nH]c(=O)c3cc2Cl)CC1 (single isomer, unassigned) .
a: >100 fold

q: Under recombinant human PKG1-beta (Homo sapiens): report Selectivity against PKG of CCC(N)[C@]1(C2CCCCC2)CC[C@H](Oc2cc3cc[nH]c(=O)c3cc2Cl)CC1 (stereo partly drawn) .
a: >100 fold

q: Under recombinant human PKG1-beta (Homo sapiens): report Selectivity against PKG of NC(C1CC1)[C@]1(CC2CCOCC2)CC[C@H](Oc2cc3cc[nH]c(=O)c3cc2Cl)CC1 (stereo partly drawn) .
a: >300 fold
